- assay.remarks: folding stability dG unfold (combined trypsin and chymotrypsin); higher = more stable
Entry class follows folding stability dG unfold: low interval (below 0.4 kcal/mol), middle interval (0.4 kcal/mol to below 2 kcal/mol), high interval (2 kcal/mol or more)

[
  {
    "sequence.data": "SATAVVIKAEVIFPNNEKKEISVVIENLTEEEVEELAEELEKKIKEEAGIPDIEVKIKVETFAKDDPAFSAG [r14_207_TrMRF]",
    "assigned.class": "middle interval"
  },
  {
    "sequence.data": "SPYFMFPIDDIKVEKERDPDDGKKTYEMRVEGPNGNPFRIEFNPKDGMIHIEFPPGMKLRPGDTFELTIRSA [r9_509_TrROS]",
    "assigned.class": "middle interval"
  },
  {
    "sequence.data": "SAGGSAGGSAGSMSVSVTKLPNGDYVVTTTTSETSTSTTGSTPVTTTTTTTTVTTLPSSSSAGGSAGGSAGG [r17_432_JUSTAS]",
    "assigned.class": "middle interval"
  },
  {
    "sequence.data": "SAGGSAGGSAGGSKKYFFKIKKIKVETKLEVNEDGSLTEEKKIEIEIELRELPSLEDLLSAGGSAGGSAGGS [r4_450_TrROS_Hall]",
    "assigned.class": "high interval"
  },
  {
    "sequence.data": "SAGGSAGGSASEIDELLAAGYTVLVKPPDGSEKVIKPGDTASNLDETFNLSPDAEFVIEPKSAGGSAGGSAG [r3_216_JUSTAS]",
    "assigned.class": "low interval"
  },
  {
    "sequence.data": "SAGMTITKTEEFPKGPGSVTRTTVTLPNGKVVVEETITLEDPSVTKTVTKTIEPADGTVLETTTTTVPASAG [r5_108_JUSTAS]",
    "assigned.class": "low interval"
  },
  {
    "sequence.data": "SAGGGSMPASITTEVTETTTPDATVTKSTVYYPDTGKWLEETTTTGPTTTITTTKFPDGSTTVTTAASAGGS [r16_657_JUSTAS]",
    "assigned.class": "low interval"
  },
  {
    "sequence.data": "SAGGSAMMTLEEAIEKAAKNIPVGEKKIIEIKLEKGTFTVEIEKIGPKEVKIKILKISKGPEEEEISAGGSA [r15_150_TrMRF]",
    "assigned.class": "high interval"
  }
]

Prompt: Classify this sequence: SAGGSAGGSASMKKKKFVVKTEEEAEKVIAELKAKVPKGTEVEIYIKNEDGTLEKYAIIKISAGGSAGGSAG [r3_92_JUSTAS]
Response: high interval

Prompt: # bin label for SAGGSAMKKIPKENVEKVIEFTDKNGKKITIVYNKKTGKAYIFDKKTKKVIEIDMTEDEIKKLLKSSAGGSA [r15_810_TrROS_Hall]
Response: middle interval

Prompt: Consider SAEKTLTIPITLENGATLTITVYEDRIEATLEVDGLTGTGYTLPDGTVVLNLRAPGNKPIASPVFTLDLSAG [r14_213_TrMRF] . To which folding stability dG unfold class does it belong?
Response: high interval

Prompt: Determine which band this sequence sits in: SAGGSAGGSAGQPKIGVLKEELIKETYTRPVPDSDETVKEERIVVKIIKKKLNIPENLLLSAGGSAGGSAGG [r17_530_JUSTAS]
Response: low interval

Prompt: // bin(item) where item = SAGGPLVVEAKVEGDTVTIRLPNGEEFTAHPDATLFLPNGERVFFEPVSDDVVIATVVPLPEDAEFPSAGGS [r16_277_TrMRF]
Response: low interval

Prompt: For this sequence, which bin applies? SAGGSAMTVEELKELFPGYPITEITDFQPVDGWYTLSIKYPNNGKKRQINVEGMPPELAKEIMELISAGGSA [r15_830_TrROS]
Response: low interval

Prompt: Dear colleague, I would appreciate it if you could identify the bin for SAGGSAGGSAGGMKKGQKFKPVKKVKLRFKVKVKVKVGGKEYEFEAEVELEVEFYVLEDSAGGSAGGSAGGS [r10_758_TrROS_Hall] and reply at your convenience.
Response: high interval
